Data origin, for the record: PubChem BioAssay AID1376

inhibition values for the molecules below.
TARGET_ENTITY: Bifunctional protein GlmU (Mycobacterium tuberculosis (strain ATCC 25618 / H37Rv)) (UniProt P9WMN3)
Sequence (P9WMN3 whole entry, looked up): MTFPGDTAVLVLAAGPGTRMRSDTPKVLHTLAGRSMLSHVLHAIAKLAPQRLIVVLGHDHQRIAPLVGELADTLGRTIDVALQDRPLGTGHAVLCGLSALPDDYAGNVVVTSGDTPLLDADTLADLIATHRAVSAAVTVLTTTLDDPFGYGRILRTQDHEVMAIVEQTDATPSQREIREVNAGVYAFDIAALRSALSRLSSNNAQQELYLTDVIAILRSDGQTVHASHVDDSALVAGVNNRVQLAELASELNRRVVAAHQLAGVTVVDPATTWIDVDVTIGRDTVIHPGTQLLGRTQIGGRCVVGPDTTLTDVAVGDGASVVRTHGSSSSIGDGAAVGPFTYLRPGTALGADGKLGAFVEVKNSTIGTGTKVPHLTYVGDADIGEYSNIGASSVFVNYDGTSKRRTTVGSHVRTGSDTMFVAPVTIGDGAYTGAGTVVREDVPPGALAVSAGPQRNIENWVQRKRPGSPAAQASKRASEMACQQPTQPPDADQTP
METHOD: inhibition of mycobacterial GlmU enzyme – biochemical, glucosamine-1-phosphate acetyltransferase (AID 1376);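 also: 0% = complete reaction with vehicle and 100% = reaction without substrate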
ASSAY_CONDITIONS: M. tuberculosis GlmU acetyltransferase enzyme assay; active compounds read high;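 tested at 30 µM in the primary screen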
The campaign covered roughly 220,000 compounds. About 530 (0.24%) were called active. Many of the other results were omitted from the sample, so actives are more common in it than they were. Potency and affinity values are given separately.
State just the number; it will be interpreted in %.

MOLECULE	inhibition [%]
Cc1ccc(S(=O)(=O)c2cc(O)ccc2O)cc1C	5.34
O=[N+]([O-])c1cccc(CSc2cccc[n+]2[O-])c1	6.55

Could you now look at the following molecule, please?
// field: inhibition; key: CC(C)c1cc(NCC2CCCO2)n2c(nc3ccccc32)c1C#N (stereo not drawn) ; value = 5.33

----------
TARGET_ENTITY: Bifunctional protein GlmU (Mycobacterium tuberculosis (strain ATCC 25618 / H37Rv))
METHOD: inhibition of mycobacterial GlmU enzyme – biochemical, glucosamine-1-phosphate acetyltransferase (AID 1376);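 also: 0% = complete reaction with vehicle and 100% = reaction without substrate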
ASSAY_CONDITIONS: M. tuberculosis GlmU acetyltransferase enzyme assay;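 tested at 30 µM in the primary screen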
Out of some 220,000 compounds screened, about 530 (0.24%) were called active. Rule as the data show it: active = inhibition above about 13%; inconclusive = no clear call, values can overlap the other calls; inactive = below that. This excerpt belongs to a sample that is enriched for actives. Entries with a potency or affinity are not part of this list.
Your reply should match one of these outcome classes. active, inactive

Some solved cases for reference:
COMPOUND	CLASS_ASSIGNMENT
Cc1ccc(N/C=C(/C#N)c2ccsc2)cc1	inactive
CCCC(c1nnnn1CCc1ccccc1)N1CCN(C(=O)c2ccco2)CC1 (stereo not given)	inactive
Cc1ccc(-n2c(SCC(=O)NC3CCS(=O)(=O)C3)nc3ccccc3c2=O)cc1 (stereo not given)	inactive
CN(CC(=O)Nc1cccc(F)c1)C(=O)CCCc1cccs1	inactive
S=c1[nH]nc(COc2ccccc2)n1/N=C/c1ccco1	inactive

QUERY: Write down the call the test reported for this compound. Item: `O=C(O)c1c2c(nc3ccccc13)/C(=C/c1ccc(O)cc1)CCC2`
RESULT: inactive

QUERY: Write down the call the test reported for this compound. Item: `Cc1[nH]c(=O)[nH]c(=O)c1/C=N/NC(=O)CCNC(=O)OC(C)(C)C`
RESULT: inactive

QUERY: Write down the call the test reported for this compound. Item: `NNC(=O)c1cncn1-c1ccc(F)cc1`
RESULT: inactive

QUERY: Write down the call the test reported for this compound. Item: `CN1CCSc2ccc(C(=O)Nc3cc(F)ccc3F)cc21`
RESULT: inactive

QUERY: Write down the call the test reported for this compound. Item: `Cc1ccccc1NC(=O)CN1C(=O)S/C(=C\c2ccc(-c3cccc(C(=O)O)c3C)o2)C1=O`
RESULT: inactive

QUERY: Write down the call the test reported for this compound. Item: `Cc1ccc(NC(=O)CN2C(=O)S/C(=C/c3ccc(O)c([N+](=O)[O-])c3)C2=O)cc1C`
RESULT: active

QUERY: Write down the call the test reported for this compound. Item: `CSCC[C@H](NC(=O)OC(C)(C)C)C(=O)N/N=C/c1ccc2nccnc2c1`
RESULT: inactive

QUERY: Write down the call the test reported for this compound. Item: CC1=C(C(=O)Nc2ccccc2)C(c2cccs2)n2nnnc2N1 (stereo not given)
RESULT: inactive

QUERY: Write down the call the test reported for this compound. Item: `CCCC(=O)NNc1cc(=O)c2c(=O)n(C)c(=O)n(C)c2[nH]1`
RESULT: inactive

QUERY: Write down the call the test reported for this compound. Item: `COc1ccccc1CNC(=O)CCS(=O)(=O)c1ccc2c(c1)CCCN2C(C)=O`
RESULT: active

QUERY: Write down the call the test reported for this compound. Item: `O=C(NCc1ccccc1)c1c(O)c2cccc3c2n(c1=O)CCC3`
RESULT: inactive
